- target_entity: Pyruvate kinase (Leishmania mexicana) (UniProt Q27686)
- Sequence (Q27686 whole entry, looked up): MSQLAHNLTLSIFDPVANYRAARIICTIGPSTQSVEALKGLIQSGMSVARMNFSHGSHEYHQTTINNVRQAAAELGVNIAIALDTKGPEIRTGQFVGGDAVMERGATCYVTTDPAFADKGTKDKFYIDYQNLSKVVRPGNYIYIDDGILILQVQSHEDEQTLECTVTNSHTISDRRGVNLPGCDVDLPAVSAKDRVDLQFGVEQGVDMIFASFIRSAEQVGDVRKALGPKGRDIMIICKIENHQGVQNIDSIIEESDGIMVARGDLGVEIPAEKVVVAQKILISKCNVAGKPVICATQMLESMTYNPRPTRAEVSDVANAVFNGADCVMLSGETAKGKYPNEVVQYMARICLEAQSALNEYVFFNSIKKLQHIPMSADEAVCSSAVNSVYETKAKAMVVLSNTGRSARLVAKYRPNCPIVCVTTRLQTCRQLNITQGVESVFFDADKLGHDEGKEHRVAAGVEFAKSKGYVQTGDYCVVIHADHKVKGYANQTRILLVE
- assay_name: qHTS Assay for Inhibitors of Leishmania Mexicana Pyruvate Kinase (LmPK)
- run_conditions: purified LmPK, Kinase-Glo ATP luminescence, 1 h; series mostly up to 57.5 µM
Hit rate of the full screen: of about 290,000 compounds, about 1,100 (0.38%) were called active. Calls come from the whole dose curve; as a rule, active = well fitted inhibition curve with a large enough effect; inconclusive = small, poorly fitted or top-dose-only effect, or another doubt; inactive = no such curve, though single readings can be large or run the other way. This excerpt belongs to a sample that is enriched for actives.
Bench note: report the call from active, inactive

| compound | qualitative_label |
| --- | --- |
| CC(=O)N(C1=C(Cl)C(=O)c2ccccc2C1=O)c1ccc(C(=O)O)cc1 | active |
| COc1ccc2oc(-c3cccc(NC(=O)CSc4ccc(Cl)cc4)c3)nc2c1 | inactive |
| Cc1cccc(NC(=O)C2CCCN(C(=O)Nc3ccc(F)cc3)C2)c1C (stereo not given) | inactive |
| O=C(Nc1nnc(C2=COCCO2)o1)c1ccc([N+](=O)[O-])s1 | inactive |
| CCCCNC(=O)N(O)C1N(/N=C/c2ccccc2O)C(=S)SC1(C)C (stereo not given) | inactive |
| C(=N\N1CCN(c2ccccn2)CC1)/C1=C(N2CCOCC2)C(=C/c2ccccc2)/CC1 | inactive |
| C[C@H](NC(=O)C1CCN(S(=O)(=O)c2ccccc2)CC1)C(=O)NCc1ccccc1 | inactive |
| O=C1Nc2ccc(Br)cc2/C1=N/N=C/C1=C(N2CCOCC2)C(=C\c2ccccc2)/CC1 | active |
| C=CCNc1nc(N)c([N+](=O)[O-])c(NC2CCCCC2)n1 | inactive |

Now for another entry.
Would you mind telling me which call this test gave CCOc1ccccc1NS(=O)(=O)c1cc2c3c(c1)C(C)C(=O)N3CCC2 (stereo not given) ?
inactive

These entries and their values trace back to PubChem BioAssay AID1721.
